# Tested on: RXF 393 renal
# protocol.summary: NCI tumour cell line growth inhibition, 48 h; in the data active means GI50 below about 0.43 µM; inactive means the rest
API: response.call in active, inactive

Q: For CC(=O)/C(=C/c1ccccc1)C(=O)CC(C)C , which call appears in the assay record?
Result: inactive

Q: For O=C(Nc1ccc(Cc2ccccc2)cc1)Nc1nn(C(=O)Nc2ccc(Cc3ccccc3)cc2)c2ccccc12 , which call appears in the assay record?
Result: inactive

Q: For COc1cc(C(=O)O[C@H](C(=O)NCCCNC(=O)[C@@H](OC(=O)c2cc(OC)cc3c(C)cccc23)[C@]2(C)CO2)[C@]2(C)CO2)c2cccc(C)c2c1 , which call appears in the assay record?
Result: active

Q: For CSC(=NC#N)S/C=C/C(=O)c1ccccc1 , which call appears in the assay record?
Result: inactive

Q: For CC1CCN(Cc2ccc(NC(=O)c3cc4ccc5cccnc5c4[nH]3)cc2)CC1 , which call appears in the assay record?
Result: inactive

Next:
Q: For COc1cccc(/C=C/C(=O)c2ccc(SC)cc2)c1OC , which call appears in the assay record?
Result: inactive

Q: For COc1cc(C2CC(c3cccc(Nc4ccnc5cc(Cl)ccc45)c3)=NN2c2ccc(Cl)cc2)cc(OC)c1OC (stereo not given) , which call appears in the assay record?
Result: inactive

Q: For CCCCCCCCCCCCCCCCCc1nccn1CCOCCO , which call appears in the assay record?
Result: inactive

Q: For CCCc1n(Cc2ccc3ccccc3c2)cc[n+]1Cc1ccc2ccccc2c1 , which call appears in the assay record?
Result: inactive

Q: For Cc1c(O)c(N=Nc2nc3ccccc3s2)c2ccccc2c1O , which call appears in the assay record?
Result: inactive

----------
# Test system: M14 melanoma
# protocol.summary: NCI tumour cell line growth inhibition, 48 h
quantity: TGI

Observe how each entry below is paired with its result.
Q: Please report the recorded TGI for CC(=O)Oc1cc(S(=O)(=O)Nc2n[nH]c(Nc3ccc(C)cc3)n2)c(S)cc1Cl .
Result: > 100 µM

Q: Please report the recorded TGI for CC1CN=C(NS(=O)(=O)c2cc(C(=O)Nc3ccc(Cl)cc3)c(Cl)cc2S)NN1 (stereo not given) .
Result: 69.5 µM

Q: Please report the recorded TGI for COc1ccccc1Cc1ccc(C2C=CC3(CC(=O)C=C3C)C(=O)C2)o1 (stereo not given) .
Result: > 100 µM

Next:
Q: Please report the recorded TGI for N#CC(N=Nc1ccccc1C(=O)O)C(N)=O (stereo not given) .
Result: > 100 µM

----------
# Test system: NCI-H522 lung
# protocol.summary: NCI tumour cell line growth inhibition, 48 h
quantity: TGI (µM)
I only need the number, in µM, no unit after it.

Q: Please report the recorded TGI for O=C(CC1(O)C(=O)N(Cc2ccccc2)c2ccc(Cl)cc21)c1ccc(C(=O)NCC2CCC3(CC2)OOC2(CCCCC2)OO3)cc1 (stereo not drawn) .
Result: 0.373

Next:
Q: Please report the recorded TGI for COc1cc2c3cc1Oc1c(OC)c(OC)cc4c1C(=NCC4)Cc1ccc(cc1)Oc1cc(ccc1O)C[C@H]3N(C)CC2 .
Result: 25.3

Q: Please report the recorded TGI for Cc1c(O)c(N=Nc2nc3ccccc3s2)c2ccccc2c1O .
Result: 46.6

Q: Please report the recorded TGI for CC(C)C(=O)N1Cc2cc(Cl)cc(Cl)c2OC(=O)c2ccccc21 .
Result: 40.9

Q: Please report the recorded TGI for NCCSc1cc(O)c2c(c1N)C(=O)c1ccccc1C2=O .
Result: 39.7

----------
TGI overview
# System: ACHN renal
# protocol.summary: NCI tumour cell line growth inhibition, 48 h

Q: Please report the recorded TGI for CCOC(=O)c1cc(-n2nnc3ccccc32)cn1C .
Result: > 10 µM

Q: Please report the recorded TGI for COc1nc2cccc(C(O)c3ccccc3)c2nc1-c1ccccc1 (stereo not drawn) .
Result: 72.9 µM

Q: Please report the recorded TGI for CC(C)N1CCN(c2ccncc2S(=O)(=O)N2CCCCC2)CC1 .
Result: > 100 µM

Next:
Q: Please report the recorded TGI for COc1cc(OC)cc(-c2ccc(-c3ccc(C(=N)N)cn3)o2)c1 .
Result: 3.16 µM

Q: Please report the recorded TGI for COc1cc(CSc2ccc(O)cc2)cc(OC)c1OC .
Result: > 100 µM

Q: Please report the recorded TGI for O=C(/C=C/c1ccc(Cl)cc1)c1ccccc(=O)c1O .
Result: 6.66 µM

Q: Please report the recorded TGI for COc1cc(-c2nc3ccc(N4CCN(C)CC4)cc3[nH]2)c(OC)c2[nH]c(COC(C)=O)nc12 .
Result: > 100 µM

Q: Please report the recorded TGI for N#Cc1c(NCc2ccccc2)nc(NCc2ccccc2)c(C#N)c1-c1ccc(O)cc1 .
Result: 57.1 µM

Q: Please report the recorded TGI for O=C1/C=C/[C@@H](O)[C@@H]2C[C@@H](O)C[C@H]2/C=C/CCC[C@H](CCc2cccc3ccccc23)O1 .
Result: 12.5 µM

----------
# Test system: 786-0 renal
# protocol.summary: NCI tumour cell line growth inhibition, 48 h
TGI overview

Observe how each entry below is paired with its result.
Q: Please report the recorded TGI for CN1CN(C2OC(CO)C(O)C2O)c2nc(N)[nH]c(=O)c21 (configuration not stated) .
Result: > 100 µM

Q: Please report the recorded TGI for COc1ccc(/C=C/C(=O)/C=C/c2ccc(OC)cc2OC)c(OC)c1 .
Result: 29 µM

Q: Please report the recorded TGI for O=C(/C=C/c1ccc(Cl)cc1)c1ccccc(=O)c1O .
Result: 32.1 µM

Q: Please report the recorded TGI for O=[N+]([O-])C(/C=C(\Cl)[N+](=O)[O-])=C1Nc2ccccc2N1 .
Result: > 100 µM

Q: Please report the recorded TGI for COC1C(O)CC(OC2CC(OC3CC(O[C@@H]4C(=O)c5c(cc6cc(OC7CC(OC8CC(O)C(O)C(C)O8)C(O)C(C)O7)c(C)c(O)c6c5O)CC4[C@H](OC)C(=O)O)OC(C)C3O)OC(C)C2O)OC1C (some centres not stated) .
Result: > 33.3 µM

Next:
Q: Please report the recorded TGI for CCOC(=O)c1cc(-n2nnc3ccccc32)cn1C .
Result: > 10 µM

Q: Please report the recorded TGI for N#CC(C(=O)C(=O)Nc1ccccc1)c1ccccc1 (configuration not stated) .
Result: > 100 µM

Q: Please report the recorded TGI for Nc1ccc2[nH]c(-c3cccc(C(F)(F)F)c3)cc(=O)c2c1 .
Result: > 100 µM

Q: Please report the recorded TGI for COc1ccc(C=Nc2c(C(=O)Nc3cccc(Cl)c3C)sc3nc(C)c(C(=O)/C=C/c4ccc(OC)cc4)cc23)cc1 .
Result: > 30 µM

Q: Please report the recorded TGI for O=C1CSC(=S)N1c1ccco1 .
Result: 61 µM

Q: Please report the recorded TGI for O=C1/C=C/[C@@H](O)[C@@H]2C[C@@H](O)C[C@H]2/C=C/CCC[C@H](CCc2cccc3ccccc23)O1 .
Result: 0.0372 µM

Q: Please report the recorded TGI for C[C@]12CCC(=O)C(OC(=O)c3ccc([N+](=O)[O-])cc3)=C1CCC2=O .
Result: > 100 µM

Q: Please report the recorded TGI for N#CC1(C#N)NC(c2ccccc2)C(C#N)(C#N)NC1c1ccccc1 (configuration not stated) .
Result: > 100 µM

Q: Please report the recorded TGI for O=C(CCl)NCCNc1nccc(Nc2ccc(S(=O)(=O)Nc3ccccn3)cc2)n1 .
Result: 11.7 µM

Q: Please report the recorded TGI for CO[C@@H]1C=C[C@@]23c4cc5c(cc4CN(C[C@@H]2O)[C@H]3C1)OCO5 .
Result: > 100 µM

Q: Please report the recorded TGI for CC12C3C4C1C1C2C3C41CO (configuration not stated) .
Result: > 100 µM

Q: Please report the recorded TGI for CCCCOC(=O)c1ccc(N)cc1 .
Result: > 100 µM

Q: Please report the recorded TGI for Cc1n[nH]c(=S)n(C)c1=S .
Result: > 100 µM

Q: Please report the recorded TGI for CCOC(=O)C1SC(=Nc2ccc(OC)c(OC)c2)N=C1C (configuration not stated) .
Result: 90.2 µM

Q: Please report the recorded TGI for CCN1CCC(Nc2ccnc3cc(Cl)ccc23)CC1 .
Result: > 100 µM

Q: Please report the recorded TGI for CCC(=O)N1C(=O)OCC1C(C)C (configuration not stated) .
Result: > 100 µM

Q: Please report the recorded TGI for Clc1cccc(-c2sc(-c3ccsc3)cc2Cc2ccsc2)c1 .
Result: > 10 µM

----------
# System: SNB-75 CNS
# protocol.summary: NCI tumour cell line growth inhibition, 48 h
GI50 overview

Q: Please report the recorded GI50 for O=S(=O)([O-])c1ccc(N=Cc2ccccc2[O-])cc1.O=S(=O)([O-])c1ccc(N=Cc2ccccc2[O-])cc1.[Co+2] .
Result: > 100 µM

Q: Please report the recorded GI50 for NCCc1ccc(S(=O)(=O)F)cc1 .
Result: > 100 µM

Q: Please report the recorded GI50 for COc1ccc2c(c1)c(-c1nc(-c3c[nH]c4ncccc34)cs1)cn2CCCN1CCCCC1 .
Result: 1.19 µM

Q: Please report the recorded GI50 for CCCCCCCCCCCCCCCC1=NCCN1 .
Result: 1.58 µM

Q: Please report the recorded GI50 for O=C1/C=C/[C@@H](O)[C@@H]2C[C@@H](O)C[C@H]2/C=C/CCC[C@H](CCc2cccc3ccccc23)O1 .
Result: 0.0358 µM

Q: Please report the recorded GI50 for C[C@H]1/C(=C/C(=O)OCCN(C)C)CC[C@H]2[C@H]1C(=O)C[C@H]1C(C)(C)[C@@H](O)CC[C@]21C .
Result: > 100 µM

Q: Please report the recorded GI50 for COc1cccc(/C=C/C(=O)c2ccc(SC)cc2)c1OC .
Result: 14.6 µM

Q: Please report the recorded GI50 for COc1ccc(C#Cc2ccc(=O)oc2-c2cc(OC)c(OC)c(OC)c2)cc1O .
Result: 5.52 µM

Next:
Q: Please report the recorded GI50 for Cc1c(-c2ccc(C3CCCCC3)cc2)nc2ccc(F)cc2c1C(=O)O .
Result: 12.2 µM

Q: Please report the recorded GI50 for Cc1ccc2oc(=O)cc(/C(=C3/C=CC=N3)c3ccc[nH]3)c2c1 .
Result: 0.335 µM

Q: Please report the recorded GI50 for CCN(CC)CCCC(C)Nc1ccnc2cc(Cl)ccc12 (stereo unspecified) .
Result: > 100 µM

meta.source: PubChem BioAssay (NCI)
